protocol.text: Enzyme-coupled assay: transfer of acyl-moieties from MMal-CoA to the ACP
Type: biochemical
particulars: substrate MMal-CoA, acceptor ACP from murine FAS
Procedure: An enzyme-coupled assay was performed to analyze the transfer of acyl-moieties from CoA to the ACP. Four solutions were prepared as 4× concentrated stocks in the assay buffer. […] The reactions were started by adding solution 4 with the dispenser system of the microplate reader (ClarioStar, BMG labtech). The reaction progress was recorded using the following settings: 348-20 nm; emission: 476-20 nm; gain: 1500; focal height: 11.9 mm; flashes: 17; orbital averaging: off.
assay.endpoint: kcat (s⁻¹)
Enter your answer as a number in s⁻¹; do not include the unit.

1. Mutant A10: engineered murine acyltransferase, mutation R300D (protein) NKRPLWFICSGMGTQWRGMGLSLMRLDSFRESILRSDEAVKPLGVKVSDLLLSTDERTFDDIVHAFVSLTAIQIALIDLLTSVGLKPDGIIGHSLGEVACGYADGCLSQREAVLAAYWRGQCIKDAHLPPGSMAAVGLSWEECKQRCPAGVVPACHNSEDTVTISGPQAAVNEFVEQLKQEGVFAKEVRTGGLAFHSYFMEGIAPTLLQALKKVIREPRPRSARWLSTSIPEAQWQSSLARTSSAEYNVNNLVSPVLFQEALWHIPEHAVVLEIAPHALLQAVLKRGVKSSCTIIPLMKDDHKDNLEFFLTNLGKVHLT
0.582

Next molecule, kcat to be filled in.
Inquiry: Return reported kcat. Input molecule: Mutant A13: engineered murine acyltransferase, mutations K186D R300E (protein) NKRPLWFICSGMGTQWRGMGLSLMRLDSFRESILRSDEAVKPLGVKVSDLLLSTDERTFDDIVHAFVSLTAIQIALIDLLTSVGLKPDGIIGHSLGEVACGYADGCLSQREAVLAAYWRGQCIKDAHLPPGSMAAVGLSWEECKQRCPAGVVPACHNSEDTVTISGPQAAVNEFVEQLKQEGVFADEVRTGGLAFHSYFMEGIAPTLLQALKKVIREPRPRSARWLSTSIPEAQWQSSLARTSSAEYNVNNLVSPVLFQEALWHIPEHAVVLEIAPHALLQAVLKRGVKSSCTIIPLMKEDHKDNLEFFLTNLGKVHLT
Reply text: 0.190
